# System: T1, human IL-1α (human, UniProt P01583 113-271)
# T1 construct: also called hIL-1α; rhIL-1 alpha
# T1 sequence (looked up): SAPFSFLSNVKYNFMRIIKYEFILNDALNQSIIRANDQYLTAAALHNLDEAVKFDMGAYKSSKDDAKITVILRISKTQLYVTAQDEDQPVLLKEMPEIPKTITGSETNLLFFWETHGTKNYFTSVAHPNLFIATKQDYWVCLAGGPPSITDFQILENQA
# Method notes: Receptor Binding Assay, IgG; value beside the ABT1 clone
Measured property: pIC50
Scale: pIC50 equals -log10([C]), with [C] in mol/L.

# lookup: pIC50 of ABT2-108-538x/ABT1-95-15 huIgG1/K wt (bispecific antibody, V domains shown, hu IgG1/K wt) VH: EVQLLESGGGLVQPGGSLRLSCAASGFTFADEGMMWVRQAPGKGLEWVSRITYSGKNTYYADSVKGRFTISRDNSKNTLYLQMNSLRAEDTAVYYCAKYTGRILGHHLFDYWGQGTLVTVSS VL: DIQMTQSPSSLSASVGDRVTITCRASQPIVRNLRWYQQKPGKAPKLLIYSSSYLEPGVPSRFSGSGSGTDFTLTISSLQPEDFATYHCQQGYRWPVTFGQGTKVEIKR
9.27

# lookup: pIC50 of ABT2-65-166/ABT1-95-A3 huIgG1/K wt (bispecific antibody, V domains shown, hu IgG1/K wt; also called 1-95-A3 / 2-65-166) VH: EVQLLESGGGLVQPGGSLRLSCAASGFTFEDYQMGWVRQAPGKGLEWVSSISAMGGRTYYADSVKGRFTISRDNSKNTLYLQMNSLRAEDTAVYYCAQNLVRLGRSRWMFDYWGQGTLVTVSS VL: DIQMTQSPSSLSASVGDRVTITCRASKPGVRNMRWYQQKPGKAPKLLIYSVSYLEPGVPSRFSGSGSGTDFTLTISSLQPEDFATYHCLQGYRWPPTFGQGTKVEIKR
10.08

# lookup: pIC50 of IgG pairing ABT1-95-A2 with ABT2-65-166 (bispecific antibody, V domains shown, IgG; also called 1-95-A2 / 2-65-166) VH: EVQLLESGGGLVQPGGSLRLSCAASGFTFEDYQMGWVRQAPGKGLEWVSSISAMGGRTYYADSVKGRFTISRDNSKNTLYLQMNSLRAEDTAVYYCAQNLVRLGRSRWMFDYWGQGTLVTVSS VL: DIQMTQSPSSLSASVGDRVTITCRILQPPGRNLRWYQQKPGKAPKLLIYSKSFLEPGVPSRFSGSGSGTDFTLTISSLQPEDFATYHCQQGYRWPVTFGQGTKVEIKR
10.17

# lookup: pIC50 of ABT2-65-166/ABT1-95-A6 hu IgG1/K wt (bispecific antibody, V domains shown, hu IgG1/K wt; also called 1-95-A6 / 2-65-166) VH: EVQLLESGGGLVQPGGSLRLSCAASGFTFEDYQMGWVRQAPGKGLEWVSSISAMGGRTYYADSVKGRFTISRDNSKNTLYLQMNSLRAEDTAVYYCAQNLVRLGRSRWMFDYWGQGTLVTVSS VL: DIQMTQSPSSLSASVGDRVTITCRASKPGVRNMRWYQQKPGKAPKLLIYAKSYLEPGVPSRFSGSGSGTDFTLTISSLQPEDFATYHCKQGYRWPVQFGQGTKVEIKR
9.97
